- Test system: Erysiphe graminis f sp. tritici
- Method: Test G: wheat powdery mildew, preventive spray on wheat seedlings
- Measurement context: 10 ppm test solution; 100 = 100% disease control, 0 = no control relative to controls
Reported metric: Test G disease control rating (%)
Just the number in %, nothing appended.

Use the examples below as a reference point.
- Compound: "OC(Cn1cncn1)(Cn1cncn1)C1=NOC(COc2ccc(Cl)cc2)C1 (stereo not shown)"
  Test system: "Erysiphe graminis f sp. tritici"
  Reported metric: "Test G disease control rating"
  Assay result: 98
- Compound: "CC(C)(C)C(O)(Cn1cncn1)C1=NOC(COc2cccc(C(F)(F)F)c2)C1 (single isomer, unassigned) [Compound 254]"
  Test system: "Erysiphe graminis f sp. tritici"
  Reported metric: "Test G disease control rating"
  Assay result: 99
- Compound: "CC1(C(O)(Cn2cncn2)C2=NOC(COc3ccc(Br)cc3)C2)CC1 (single isomer, unassigned) [Compound 238]"
  Test system: "Erysiphe graminis f sp. tritici"
  Reported metric: "Test G disease control rating"
  Assay result: 99

For the compound COc1ccc(OCC2CC(C(O)(Cn3cncn3)C(C)(C)C)=NO2)cc1 (single isomer, unassigned) [Compound 260] , what Test G disease control rating is on record? 100

For the compound OC(Cn1cncn1)(C1=NOC2c3ccccc3CCC12)c1ccc(Cl)cc1 (stereo not shown) [Compound 223] , what Test G disease control rating is on record? 99

For the compound CC(C)(C)C(O)(Cn1cncn1)C1=NOC(COc2cccc(C(F)(F)F)c2)C1 (single isomer, unassigned) [Compound 253] , what Test G disease control rating is on record? 100

For the compound CC1(C(O)(Cn2cncn2)C2=NOC(COc3ccc(C(F)(F)F)cc3)C2)CC1 (single isomer, unassigned) [Compound 236] , what Test G disease control rating is on record? 100

These entries and their values trace back to patent US20160242416A1.
